Protocol Text: Quantitative High-Throughput drug screen in 47 multiple myeloma cell lines against the NCATS MIPE library collection: INA6_PLB cell viability assay (AID 1918965; also: nearly all actives have a fitted effect of over 55% in size)
Experimental Context: INA6 myeloma viability, CellTiter-Glo ATP luminescence, 48 h; series mostly up to 45.8 µM
Inconclusive results are not listed. Activity calls are given as the source filed them. Calls follow the shape of the dose curve; as a rule, active = well fitted cell-killing curve with a large enough effect; inconclusive = small, poorly fitted or top-dose-only effect, or effect the other way; inactive = no such curve, though single readings can be large or run the other way.
# output must be one of label 1 (active), label 0 (inactive)

Exercise: How did this test come out for CC(N[C@H]1C[C@H]1c1ccccc1)c1ccc2c(c1)OCCO2 (stereo partly specified) ?
Solution: label 0

Exercise: How did this test come out for `Cc1c(C(=O)c2cccc3ccccc23)c2cccc3c2n1[C@H](CN1CCOCC1)CO3` ?
Solution: label 1

Exercise: How did this test come out for `Cc1c(C(=O)Nc2cccc(C(F)(F)F)c2)cc(-c2ccccc2)n1CCCN1CCOCC1` ?
Solution: label 1

Exercise: How did this test come out for `COc1ccc2c(c[n+](C)c3c4cc5c(cc4ccc23)OCO5)c1OC` ?
Solution: label 1

Exercise: How did this test come out for NC1CC1c1ccccc1 (stereo unspecified) ?
Solution: label 0

Exercise: How did this test come out for `CC(C)N(CCNC(=O)CN1CCCC1=O)C(C)C` ?
Solution: label 0

---

Protocol Text: Quantitative High-Throughput drug screen in 47 multiple myeloma cell lines against the NCATS MIPE library collection: KMS34_JCRB cell viability assay (AID 1918985); also: nearly all actives have a fitted effect of over 40% in size
Experimental Context: KMS34 myeloma viability, CellTiter-Glo ATP luminescence, 48 h; series mostly up to 45.8 µM
Records with an inconclusive call do not appear. The source made the active and inactive calls. Calls follow the shape of the dose curve; as a rule, active = well fitted cell-killing curve with a large enough effect; inconclusive = small, poorly fitted or top-dose-only effect, or effect the other way; inactive = no such curve, though single readings can be large or run the other way.
# output must be one of true for active, false for inactive

{"Compound": "CC(C)[C@H]1C(=O)N[C@H](CO)Cc2c[nH]c3cccc(c23)N1C", "Assigned Label": "false"}
{"Compound": "C#C[C@]1(O)C=C[C@@H]2[C@@H]3CCC4=CC(=O)CC[C@@H]4[C@H]3CC[C@@]21CC", "Assigned Label": "false"}
{"Compound": "CC=C(C)C(=O)O[C@H]1C(C)=C2[C@@H]3OC(=O)[C@@](C)(O)[C@@]3(O)[C@@H](OC(=O)CCC)C[C@](C)(OC(C)=O)[C@@H]2[C@@H]1OC(=O)CCCCCCC", "Assigned Label": "true"}

Exercise: How did this test come out for `CC(C)(O)C(=O)Nc1ccc([N+](=O)[O-])c(C(F)(F)F)c1` ?
Solution: false

Exercise: How did this test come out for COCC1(CO)C(=O)C2CCN1CC2 (centres undefined) ?
Solution: true

Exercise: How did this test come out for `CN1CCN(c2ccc([N+](=O)[O-])c3no[n+]([O-])c23)CC1` ?
Solution: true

Exercise: How did this test come out for CCCC[N+]1(C)[C@H]2CC(OC(=O)[C@H](CO)c3ccccc3)C[C@H]1[C@H]1O[C@H]12 (some centres undefined) ?
Solution: false

Exercise: How did this test come out for `c1ccc(CCCN2CCN(CCOC(c3ccccc3)c3ccccc3)CC2)cc1` ?
Solution: true

Exercise: How did this test come out for `C[C@@H]1CC[C@H]2[C@@H](C)C(=O)O[C@@H]3O[C@@]4(C)CC[C@H]1[C@]32OO4` ?
Solution: true

---

Protocol Text: qHTS of pediatric cancer cell lines to identify multiple opportunities for drug repurposing: Primary screen for DAOY cells (AID 1347090); also: nearly all actives have a fitted effect of over 55% in size
Experimental Context: DAOY medulloblastoma viability, CellTiter-Glo luminescence, 48 h; series mostly up to 46 µM
Records with an inconclusive call do not appear. Activity calls are given as the source filed them. Calls follow the shape of the dose curve; as a rule, active = well fitted cell-killing curve with a large enough effect; inconclusive = small, poorly fitted or top-dose-only effect; inactive = flat fitted curve, though single readings scatter.
# output must be one of true = active, false = inactive

{"Compound": "c1ccc2c(CN3CCNCC3)cccc2c1", "Assigned Label": "false"}
{"Compound": "C[C@@]12OC(=O)[C@]1([C@@H](O)[C@@H]1C=CCCC1)NC(=O)[C@H]2CCCl", "Assigned Label": "true"}
{"Compound": "Nc1ccc(Cl)cc1", "Assigned Label": "false"}
{"Compound": "CC(Cc1ccc(O)cc1)NCC(O)c1cc(O)cc(O)c1 (centres undefined)", "Assigned Label": "false"}

Exercise: How did this test come out for `Cc1[nH]nc2ccc(-c3cncc(OC[C@@H](N)Cc4c[nH]c5ccccc45)c3)cc12` ?
Solution: true

Exercise: How did this test come out for `CC(=O)N(C)c1cccc(-c2ccnc3c(C(=O)c4cccs4)cnn23)c1` ?
Solution: false

Exercise: How did this test come out for `c1cc2ccc3cccc4ccc(c1)c2c34` ?
Solution: false

Exercise: How did this test come out for `CCCN(CCC)c1c([N+](=O)[O-])cc(S(N)(=O)=O)cc1[N+](=O)[O-]` ?
Solution: true

Exercise: How did this test come out for `OCCCBr` ?
Solution: false

Exercise: How did this test come out for `O=[N+]([O-])c1ccc([As](=O)(O)O)cc1` ?
Solution: false

Exercise: How did this test come out for COC(=O)c1cncn1C(C)c1ccccc1 (centres undefined) ?
Solution: false

Exercise: How did this test come out for `O=C1C(I)=CC(=C(c2cc(I)c(O)c(I)c2)c2ccccc2C(=O)O)C=C1I` ?
Solution: false

Exercise: How did this test come out for `COCCOCCO` ?
Solution: false

Exercise: How did this test come out for CCC(=O)OC1CCC2C3CCC4=CC(=O)CC[C@@]4(C)C3CC[C@]12C (some centres undefined) ?
Solution: false

Exercise: How did this test come out for `CS(=O)(=O)c1ccc(C(=O)C2C(=O)CCCC2=O)c([N+](=O)[O-])c1` ?
Solution: false

Exercise: How did this test come out for `O=c1cccc2n1CC1CNC[C@H]2C1` ?
Solution: true

Exercise: How did this test come out for `O=S(=O)(O)C(F)(F)C(F)(F)C(F)(F)C(F)(F)F` ?
Solution: false

Exercise: How did this test come out for `O=S(=O)(O)C(F)(F)C(F)(F)C(F)(F)C(F)(F)C(F)(F)C(F)(F)C(F)(F)C(F)(F)F` ?
Solution: false

Exercise: How did this test come out for `Nc1ccc(Sc2ccc(N)cc2)cc1` ?
Solution: false

Exercise: How did this test come out for `COC[C@H]1OC(=O)c2coc3c2[C@@]1(C)C1=C(C3=O)[C@@H]2CC[C@H](O)[C@@]2(C)C[C@@H]1OC(C)=O` ?
Solution: true

---

Protocol Text: qHTS for Inhibitors of the Functional Ribonucleoprotein Complex (vRNP) of Lymphocytic Choriomeningitis Arenaviruses (LCMV): Viability assay - alamar blue signal for LCMV Primary Screen (AID 1347085); also: nearly all actives have a fitted effect of over 80% in size
Experimental Context: alamar blue viability counter-screen, LCMV vRNP screen cells; series mostly up to 57.5 µM
Records with an inconclusive call do not appear. The source made the active and inactive calls. The call rests on the fitted dose curve; tested in HEK293 reporter line.
# output must be one of 1.0 (active), 0.0 (inactive)

{"Compound": "COc1ccc2c(c1)[C@]13CCCCC1C(C2)N(C)CC3 (stereo not given in full)", "Assigned Label": 0.0}

Exercise: How did this test come out for `CC(=O)OCC1=C(C(=O)O)N2C(=O)[C@@H](N)[C@@H]2SC1` ?
Solution: 0.0

Exercise: How did this test come out for `Cc1cc(SCc2sc(-c3ccc(C(F)(F)F)cc3)nc2C)ccc1OCC(=O)O` ?
Solution: 0.0

Exercise: How did this test come out for `O=c1cc(CN2CCOCC2)occ1OCCCCCSc1ccnc2cc(C(F)(F)F)ccc12` ?
Solution: 1.0

Exercise: How did this test come out for `O=C(NOC[C@H](O)CO)c1ccc(F)c(F)c1Nc1ccc(I)cc1F` ?
Solution: 0.0

---

System: CRL-7250
Protocol Text: Cytotoxic Profiling of Annotated Libraries Using Quantitative High-Throughput Screening (AID 1296008); also: % is scaled to controls: 0 for no effect and ±100 for the full control effect; nearly all actives have a fitted effect of over 60% in size
Experimental Context: Five cell lines viability, CellTiter-Glo ATP luminescence, 48-72 h; stronger effect = lower value
Method: Cell-based phenotypic screening is a commonly used approach to discover biological pathways, novel drug targets, chemical probes and high-quality hit-to-lead molecules. […] A pintool (Kalypsys) was used to transfer 23 nL of compound solution to the 1536-well assay plates. […] Plates were left at room temperature for 10 min before imaging the ATP-coupled luminescence using a ViewLux microplate imager (PerkinElmer, Waltham, MA).
Inconclusive results are not listed.
The reader will find reported max response values listed item by item below.
# output: bare number, implied unit %

The following compounds have reported results that may help.
{"Compound": "O=C(O)c1cc(Oc2ccc(C(F)(F)F)cc2Cl)ccc1[N+](=O)[O-]", "max response, %": -0.373}
{"Compound": "c1cc2c(cc1[C@H]1OC[C@H]3[C@H]1CO[C@H]3c1ccc3c(c1)OCO3)OCO2", "max response, %": -11.7}
{"Compound": "O=[N+]([O-])c1c(Cl)c(Cl)cc(Cl)c1Cl", "max response, %": -4.27}
{"Compound": "CCOC(=O)c1cncn1[C@H](C)c1ccccc1", "max response, %": 2.73}
{"Compound": "COc1cc2cc(c1Cl)N(C)C(=O)C[C@H](OC(=O)C(C)C)[C@]1(C)O[C@H]1[C@H](C)[C@@H]1C[C@@](O)(NC(=O)O1)[C@H](OC)C=CC=C(C)C2", "max response, %": -68.5}

Exercise: Kindly indicate its recorded max response. Item: `C[C@]12CC[C@@H]3[C@@H](CCC4=CC(=O)CC[C@@H]43)[C@@H]1CC[C@@H]2OC(=O)CCc1ccccc1`
Solution: 1.37

Exercise: Kindly indicate its recorded max response. Item: `Cc1ccc(Cl)c(O)c1`
Solution: 3.13

Exercise: Kindly indicate its recorded max response. Item: O=S(=O)(CC1CS1)c1ccc(Oc2ccccc2)cc1 (stereo not given)
Solution: -6.75

Exercise: Kindly indicate its recorded max response. Item: `CC(=O)NCCc1c[nH]c2ccccc12`
Solution: -10.8

Exercise: Kindly indicate its recorded max response. Item: `c1ccc2c(CN3CCNCC3)cccc2c1`
Solution: -5.13
